Molecular target: T1, IRF-3 DBD H40A (human, UniProt Q14653 1-113, H40A)
T1 sequence: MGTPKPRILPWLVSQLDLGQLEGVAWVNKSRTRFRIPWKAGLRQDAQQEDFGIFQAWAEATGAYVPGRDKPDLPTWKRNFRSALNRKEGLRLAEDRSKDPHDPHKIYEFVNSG
Assay: fluorescence anisotropy
MEASURED PROPERTY: Kd
Give the figure together with its unit, number first.

Request: Which Kd value belongs to PRDI 15-mer duplex (dsDNA) DNA 1: GAGAAGTGAAAGTGG DNA 2: CCACTTTCACTTCTC ?
Result: 1.71 µM
